Source listed as patent US20260062466A1.

Collected FRNT neutralisation, 37997 EC50 values appear next to each entry.
# SUBJECT OF TEST: CHIKV-37997 (virus) (Chikungunya virus strain 37997) (UniProt Q5XXP3)
# Sequence (Q5XXP3 326-748 limits assumed, chain 1 of 2): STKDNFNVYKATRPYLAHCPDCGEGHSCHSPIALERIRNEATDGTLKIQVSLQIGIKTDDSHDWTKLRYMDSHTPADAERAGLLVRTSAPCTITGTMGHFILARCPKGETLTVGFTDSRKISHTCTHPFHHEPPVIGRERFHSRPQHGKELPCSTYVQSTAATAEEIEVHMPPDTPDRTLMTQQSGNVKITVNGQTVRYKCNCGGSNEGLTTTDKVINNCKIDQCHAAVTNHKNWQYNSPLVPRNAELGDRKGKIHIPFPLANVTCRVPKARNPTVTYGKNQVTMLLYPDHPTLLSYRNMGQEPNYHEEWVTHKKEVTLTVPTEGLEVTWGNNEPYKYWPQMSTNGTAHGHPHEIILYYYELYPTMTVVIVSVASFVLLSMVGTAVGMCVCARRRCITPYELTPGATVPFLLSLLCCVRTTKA
# Sequence (Q5XXP3 810-1248 limits assumed, chain 2 of 2): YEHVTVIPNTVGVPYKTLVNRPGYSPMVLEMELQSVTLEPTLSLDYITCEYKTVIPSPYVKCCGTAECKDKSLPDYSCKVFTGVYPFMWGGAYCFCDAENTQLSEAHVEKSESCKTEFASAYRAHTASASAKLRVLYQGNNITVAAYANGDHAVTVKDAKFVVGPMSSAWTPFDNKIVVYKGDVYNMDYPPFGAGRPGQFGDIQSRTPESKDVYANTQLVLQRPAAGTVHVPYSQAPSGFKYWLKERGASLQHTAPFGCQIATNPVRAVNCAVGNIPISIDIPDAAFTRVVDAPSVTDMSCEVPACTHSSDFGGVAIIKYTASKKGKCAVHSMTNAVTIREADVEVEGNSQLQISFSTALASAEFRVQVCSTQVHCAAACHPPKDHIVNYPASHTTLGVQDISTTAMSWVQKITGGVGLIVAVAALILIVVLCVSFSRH
# EXPERIMENTAL DETAILS: cell-based or functional assay

{"columns": ["BINDER", "FRNT neutralisation, 37997 EC50 [ng/mL]"],
 "data": [
  ["516.F07 (antibody, V domains shown) VH: EVQLVQSGAEVKKPGESLKISCKGSGYRFTSYWIAWVRQMPGKGLECMGIIYPGDSDTRYSPSFQGQVTISVDKSISTAYLQWSSLKASDTAMFYCARHNNNWSLQGYFDYWGQGTLVTVSS VL: PSALTQPASVSGSPGQSITISCTGTSSDVGGYNYVSWYQQHPGKAPKLMIYDVSNRSSGVSNRFSGSKSGNTASLTISGLQAEDEADYYCSSYTGSSTSNYVFGTGTKVTVL", 4],
  ["516.H07 (antibody, V domains shown) VH: EVQLVESGGGLVQPGGSLRLSCAASGFTFSSYEMNWVRQAPGKGLEWVSYMSYTGSTIYYADSVKGRFTISRDNGKNSLYLQMNSLRVEDTAVYYCARGGVVVAPTYFDYWGQGTLVTVSS VL: QSVLTQPPSVSGAPGQRVTISCTGSSSNIGAGYDVHWYQQLPGTAPKLLIYHNNNRPSGVPDRFSASKSGTSASLAITGLQAEDEADYYCQSYDSSLSGWVFGGGTKLTVL", 910],
  ["520.D02 (antibody, V domains shown) VH: QVQLVQSGSELQKPGASVKVSCKASGYTFTENAIIWVRQAPGQGLEWMGRIIRYPGRPTIAQGFTGRFGFSLDTSINTAYLEISNLKAEDTAFFYCAREYCDSSSCSSFDYWGQGTLVTVSS VL: QSVLTQPPSASGSPGQSVTISCTGTNNDVGIYSYVSWYQQHPGKAPKLMIYEVSKRPSGVPDRFSGSKSGNTASLTVSGLQADDEADYYCSSYAGSNSYVFGSGTKVTVL", 2]
]}
